- Test system: T1, alpha-s1 casein from Bos taurus
- T1 chain: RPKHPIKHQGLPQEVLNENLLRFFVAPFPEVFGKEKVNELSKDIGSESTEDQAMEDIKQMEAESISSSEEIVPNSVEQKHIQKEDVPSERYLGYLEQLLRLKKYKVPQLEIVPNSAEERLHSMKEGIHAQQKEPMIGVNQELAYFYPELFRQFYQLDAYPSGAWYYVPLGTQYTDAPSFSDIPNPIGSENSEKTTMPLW
Reported metric: αs1 CN, 16 hours, 30° C.

[[record]]
protein = "Chymax M (recombinant camel chymosin) (protein) GKVAREPLTSYLDSQYFGKIYIGTPPQEFTVVFDTGSSDLWVPSIYCKSNVCKNHHRFDPRKSSTFRNLGKPLSIHYGTGSMEGFLGYDTVTVSNIVDPNQTVGLSTEQPGEVFTYSEFDGILGLAYPSLASEYSVPVFDNMMDRHLVARDLFSVYMDRNGQGSMLTLGAIDPSYYTGSLHWVPVTLQQYWQFTVDSVTINGVAVACVGGCQAILDTGTSVLFGPSSDILKIQMAIGATENRYGEFDVNCGNLRSMPTVVFEINGRDYPLSPSAYTSKDQGFCTSGFQGDNNSELWILGDVFIREYYSVFDRANNRVGLAKAI"
reported_metric = "αs1 CN, 16 hours, 30° C."
measured_result = "0 Volume"


Now consider the entry below.
Report measured αs1 CN, 16 hours, 30° C.; entry is bovine chymosin B variant #103 (A51I, K221T) (protein) GEVASVPLTNYLDSQYFGKIYLGTPPQEFTVLFDTGSSDFWVPSIYCKSNICKNHQRFDPRKSSTFQNLGKPLSIHYGTGSMQGILGYDTVTVSNIVDIQQTVGLSTQEPGDVFTYAEFDGILGMAYPSLASEYSIPVFDNMMNRHLVAQDLFSVYMDRNGQESMLTLGAIDPSYYTGSLHWVPVTVQQYWQFTVDSVTISGVVVACEGGCQAILDTGTSTLVGPSSDILNIQQAIGATQNQYGEFDIDCDNLSYMPTVVFEINGKMYPLTPSAYTSQDQGFCTSGFQSENHSQKWILGDVFIREYYSVFDRANNLVGLAKAI 1.4e+06 Volume
